Entry source: ChEMBL document CHEMBL1131832

test system: HT-29; assay: Antineoplastic activity against HT-29 (human colon adenocarcinoma) cell line.; type: functional, cell-based
The recorded IC50 of each item maps onto one of these classes: bottom end: < 6 µM; midrange: ≥ 6 µM and < 20 µM; top end: ≥ 20 µM

1. COc1cc(CC(=O)c2ccoc2)cc(OC)c1OC: midrange
2. COc1cc(CC(O)c2ccc3c(c2)OCO3)cc(OC)c1OC (stereo unspecified): top end
3. COc1cc(CCc2ccc(C)o2)cc(OC)c1OC: midrange
4. COc1ccc2[nH]c(-c3ccc4c(c3)OCO4)c(-c3cc(OC)c(OC)c(OC)c3)c2c1: midrange
5. COc1cc(CC(=O)c2ccc3ccccc3c2)cc(OC)c1OC: top end
6. COc1cc(CCc2ccoc2)cc(OC)c1OC: top end
7. COc1ccc2[nH]c(-c3ccco3)c(-c3cc(OC)c(OC)c(OC)c3)c2c1: bottom end
8. COc1cc(CC(O)c2ccco2)cc(OC)c1OC (stereo unspecified): top end
9. COc1cc(CC(O)c2ccoc2)cc(OC)c1OC (stereo unspecified): top end
10. COc1ccc2[nH]c(-c3ccc4ccccc4c3)c(-c3cc(OC)c(OC)c(OC)c3)c2c1: bottom end
11. COc1cc(CC(=O)c2ccco2)cc(OC)c1OC: top end
12. COc1ccc2[nH]c(-c3ccoc3)c(-c3cc(OC)c(OC)c(OC)c3)c2c1: bottom end
13. COc1cc(CC(O)c2ccc3ccccc3c2)cc(OC)c1OC (stereo unspecified): bottom end
14. COc1cc(CC(=O)c2ccc(C)o2)cc(OC)c1OC: midrange
15. COc1ccc2[nH]c(-c3ccc(C)o3)c(-c3cc(OC)c(OC)c(OC)c3)c2c1: midrange
16. COc1cc(CCc2ccco2)cc(OC)c1OC: midrange
